assay_target: avidin (AV) (Gallus gallus)
Construct: purchased Calbiochem (La Jolla, CA)
Sequence (P02701 25-152): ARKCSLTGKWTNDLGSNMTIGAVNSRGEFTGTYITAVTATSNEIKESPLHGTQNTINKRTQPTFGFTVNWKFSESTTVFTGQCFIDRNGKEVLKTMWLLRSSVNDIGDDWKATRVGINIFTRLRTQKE
procedure_text: Relaxation kinetics of unlabeled biotin reacting with the AV-HABA complex
Format: binding
condition_info: from k−1 and k1; pH 8
parameter_measured: Kd
A bare number is not enough; add the unit after it.

For reference, reported Kd for O=C(O)c1ccccc1N=Nc1ccc(O)cc1 [HABA, 2-(4’-hydroxyazobenzene)-benzoic acid] stands at 12.2 µM

====

# W annotations
procedure_text: Time-resolved anisotropy, cone angle, unbound probe
Type: physicochemical
condition_info: unbound dye
Answer format: numeric, ° implied, no suffix.

O=C(CCCC[C@@H]1SC[C@@H]2NC(=O)N[C@@H]21)NCCNC(=O)c1ccc(-c2c3ccc(=O)cc-3oc3cc(O)ccc23)c(C(=O)O)c1 [BFl, Biotin-4-fluorescein] :: 90

Let's switch to this molecule now.
Entry under test: NC(CCCCNC(=O)CCCC[C@@H]1SC[C@@H]2NC(=O)N[C@@H]21)C(=O)NCCCCCNC(=O)c1ccc(-c2c3cc(F)c(=O)cc-3oc3cc(O)c(F)cc23)c(C(=O)O)c1 (some centres unmarked) [BcO, Oregon green 488 Biocytin] . Its W was 90

Data origin: paper PMC6394990
